# SYSTEM_NAME: UniProtKB P07550
# PROTOCOL: Agonist activity at human recombinant beta2 receptor assessed as cAMP accumulation by radioimmunoassay and cell based assay
# Assay type: functional
MEASURED_PARAMETER: EC50 (nM)

COMPOUND	MEASURED_PARAMETER	VALUE_MEASURED
OCc1cc(C(O)CNCCc2ccc(Nc3ccc(O)cc3)cc2)ccc1O (racemic)	EC50	200
OCc1cc(C(O)CNCCc2ccc(Nc3ccc(Oc4ccccc4)cc3)cc2)ccc1O (racemic)	EC50	20
COc1ccc(CN2CCN(c3ccc(CCNCC(O)c4ccc(O)c(CO)c4)cc3)CC2)cc1 (racemic)	EC50	631
COc1ccc(Nc2ccc(CCNCC(O)c3ccc(O)c(CO)c3)cc2)cc1-c1ccccc1 (racemic)	EC50	1.26
COC(=O)c1ccc(Nc2ccc(CCNCC(O)c3ccc(O)c(CO)c3)cc2)cc1 (racemic)	EC50	6.31

[1] OCc1cc(C(O)CNCCc2ccc(Nc3ccc4ccccc4c3)cc2)ccc1O (racemic)
[2] OCc1cc(C(O)CNCCc2ccc(NCc3ccc4ccccc4c3)cc2)ccc1O (racemic)
[3] OCc1cc(C(O)CNCCc2ccc(Nc3ccc(-c4ccccc4)cc3)cc2)ccc1O (racemic)
[4] O=C(c1ccccc1)C1CCN(c2ccc(CCNCC(O)c3ccc(O)c(CO)c3)cc2)CC1 (racemic)
INPUT: Order the entries by their reported EC50, beginning at the minimum. The reply should contain the labels ordered as requested.
OUTPUT: 1, 3, 2, 4

* * *

pKi: −log10 of the molar value.
Record: pKi reported on Beta-2 adrenergic receptor (Homo sapiens, UniProt P07550).
Sequence (P07550 whole entry): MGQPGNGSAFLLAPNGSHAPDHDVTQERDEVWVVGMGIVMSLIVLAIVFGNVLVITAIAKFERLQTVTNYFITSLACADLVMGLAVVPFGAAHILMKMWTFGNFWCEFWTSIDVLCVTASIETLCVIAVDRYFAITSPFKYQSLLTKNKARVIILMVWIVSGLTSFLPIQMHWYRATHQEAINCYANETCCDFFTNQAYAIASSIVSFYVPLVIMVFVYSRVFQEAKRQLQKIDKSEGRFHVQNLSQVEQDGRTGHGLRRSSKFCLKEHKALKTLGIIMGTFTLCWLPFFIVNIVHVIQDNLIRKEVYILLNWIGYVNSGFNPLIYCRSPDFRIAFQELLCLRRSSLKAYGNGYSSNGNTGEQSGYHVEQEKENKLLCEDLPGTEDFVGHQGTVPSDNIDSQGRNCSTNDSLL
MEASURED_PARAMETER: pKi

COMPOUND	pKi
CSc1ccc(Nc2ccc(CCNCC(O)c3ccc(O)c(CO)c3)cc2)cc1 (racemic)	7.10
OCc1cc(C(O)CNCCc2ccc(Nc3ccc(F)cc3)cc2)ccc1O (racemic)	5.90

[P] OCc1cc(C(O)CNCCc2ccc(Nc3ccc(-c4ccccc4)cc3)cc2)ccc1O (racemic)
[Q] COc1ccc(Nc2ccc(CCNCC(O)c3ccc(O)c(CO)c3)cc2)cc1 (racemic)
[R] OCc1cc(C(O)CNCCc2ccc(N3CCC(c4ccccc4)CC3)cc2)ccc1O (racemic)
[S] CCOc1ccc(Nc2ccc(CCNCC(O)c3ccc(O)c(CO)c3)cc2)cc1 (racemic)
INPUT: Would you mind ranking these compounds by ascending pKi? To answer, write out the labels according to the requested order.
OUTPUT: R, Q, P, S
(R: 4.90, Q: 5.90, P: 6.50, S: 6.80)

* * *

# Species: Homo sapiens
# PROTOCOL: Selectivity ratio Ki for beta1 receptor (unknown origin) to Ki for beta2 receptor (unknown origin)
MEASURED_PARAMETER: Ratio Ki

Solved cases below.
COMPOUND	Ratio Ki
OCc1cc(C(O)CNCCc2ccc(Nc3ccc(-c4ccccc4)cc3)cc2)ccc1O (racemic)	36
OCc1cc(C(O)CNCCc2ccc(Nc3ccc(F)cc3)cc2)ccc1O (racemic)	6.5
COc1ccc(Nc2ccc(CCNCC(O)c3ccc(O)c(CO)c3)cc2)cc1-c1ccccc1 (racemic)	319

[I] COc1ccc(Nc2ccc(CCNCC(O)c3ccc(O)c(CO)c3)cc2)cc1 (racemic)
[II] O=CNc1cc([C@@H](O)CNCCc2ccc(NC[C@H](O)c3ccccc3)cc2)ccc1O
INPUT: Field: lower Ratio Ki | Options: I / II State your choice using its label.
OUTPUT: I

* * *

# Species: Homo sapiens
# PROTOCOL: Selectivity ratio Ki for beta1 receptor (unknown origin) to Ki for beta2 receptor (unknown origin)
MEASURED_PARAMETER: Ratio Ki

COMPOUND	Ratio Ki
OCc1cc(C(O)CNCCc2ccc(Nc3cccc4ccccc34)cc2)ccc1O (racemic)	5.4

[a] O=C(c1ccccc1)C1CCN(c2ccc(CCNCC(O)c3ccc(O)c(CO)c3)cc2)CC1 (racemic)
[b] OCc1cc(C(O)CNCCc2ccc(Nc3ccc4ccccc4c3)cc2)ccc1O (racemic)
INPUT: Field: entry with larger Ratio Ki (options a / b ). Please indicate the selected item by its label.
OUTPUT: b
(b: 34, a: 3.4)

[a] OCc1cc(C(O)CNCCc2ccc(Nc3ccc(O)cc3)cc2)ccc1O (racemic)
[b] CCOc1ccc(Nc2ccc(CCNCC(O)c3ccc(O)c(CO)c3)cc2)cc1 (racemic)
[c] OCc1cc(C(O)CNCCc2ccc(N3CCC(Cc4ccccc4)CC3)cc2)ccc1O (racemic)
INPUT: Please list the entries, largest Ratio Ki first. I'd appreciate it if you listed the labels in the requested order.
OUTPUT: b, a, c

[P] OCc1cc(C(O)CNCCc2ccc(Nc3cccc(-c4ccccc4)c3)cc2)ccc1O (racemic)
[Q] OCc1cc(C(O)CNCCc2ccc(N3CCC(CCCc4ccccc4)CC3)cc2)ccc1O (racemic)
INPUT: Which gives the smaller Ratio Ki number: P or Q ? Answer by quoting the chosen item's label.
OUTPUT: Q

* * *

# SYSTEM_NAME: Beta-2 adrenergic receptor (Homo sapiens, UniProt P07550)
# PROTOCOL: Agonist activity at human beta2 receptor in BEAS-2B cells assessed as cAMP accumulation by radioimmunoassay
# Type: functional, cell-based
pEC50: −log10 of the molar value.
MEASURED_PARAMETER: pEC50

COc1ccc(Nc2ccc(CCNC[C@H](O)c3ccc(O)c(NC=O)c3)cc2)cc1-c1ccccc1 9.10

[a] COc1ccc(Nc2ccc(CCNC[C@H](O)c3ccc(O)c4[nH]c(=O)ccc34)cc2)cc1-c1ccccc1
[b] COc1ccc(Nc2ccc(CCNC[C@H](O)c3ccc(O)c(CO)c3)cc2)cc1-c1ccccc1
INPUT: Thinking about recorded pEC50 values, which is higher, a or b ? Bench note: the answer is the label of the chosen record.
OUTPUT: a

* * *

# SYSTEM_NAME: Beta-2 adrenergic receptor (Homo sapiens)
# PROTOCOL: Agonist activity at human recombinant beta2 receptor assessed as cAMP accumulation by radioimmunoassay and cell based assay
# Format: functional
pEC50: −log10 of the molar value.
MEASURED_PARAMETER: pEC50

In the examples that follow, each entry is paired with its recorded pEC50.
COMPOUND	SYSTEM_NAME	VALUE_MEASURED
OCc1cc(C(O)CNCCc2ccc(Nc3ccc4c(c3)CCC4)cc2)ccc1O (racemic)	Beta-2 adrenergic receptor (Homo sapiens)	8.10
OCc1cc(C(O)CNCCc2ccc(Br)cc2)ccc1O (racemic)	Beta-2 adrenergic receptor (Homo sapiens)	7.60
COc1ccc(Nc2ccc(CCNC[C@H](O)c3ccc(O)c4[nH]c(=O)ccc34)cc2)cc1-c1ccccc1	Beta-2 adrenergic receptor (Homo sapiens)	9.90

[P] OCc1cc(C(O)CNCCc2ccc(Nc3ccc(F)cc3)cc2)ccc1O (racemic)
[Q] OCc1cc(C(O)CNCCc2ccc(N3CCC(CCCc4ccccc4)CC3)cc2)ccc1O (racemic)
INPUT: Given P and given Q , which shows the smaller recorded pEC50? Answer = label.
OUTPUT: Q

* * *

# SYSTEM_NAME: Beta-2 adrenergic receptor (Cavia porcellus)
# PROTOCOL: Agonist activity at beta2 receptor in guinea pig trachea assessed as fast onset of inhibition of electrically stimulated contraction
MEASURED_PARAMETER: EC50 (nM)
Please reply with the bare figure in nM and do not write the unit itself.

INPUT: Form field: reported EC50 of O=CNc1cc([C@@H](O)CNCCc2ccc(NC[C@H](O)c3ccccc3)cc2)ccc1O [MILVETEROL]
OUTPUT: 0.0501

* * *

# SYSTEM_NAME: Beta-2 adrenergic receptor (Cavia porcellus, UniProt Q8K4Z4)
# Sequence (Q8K4Z4 whole entry): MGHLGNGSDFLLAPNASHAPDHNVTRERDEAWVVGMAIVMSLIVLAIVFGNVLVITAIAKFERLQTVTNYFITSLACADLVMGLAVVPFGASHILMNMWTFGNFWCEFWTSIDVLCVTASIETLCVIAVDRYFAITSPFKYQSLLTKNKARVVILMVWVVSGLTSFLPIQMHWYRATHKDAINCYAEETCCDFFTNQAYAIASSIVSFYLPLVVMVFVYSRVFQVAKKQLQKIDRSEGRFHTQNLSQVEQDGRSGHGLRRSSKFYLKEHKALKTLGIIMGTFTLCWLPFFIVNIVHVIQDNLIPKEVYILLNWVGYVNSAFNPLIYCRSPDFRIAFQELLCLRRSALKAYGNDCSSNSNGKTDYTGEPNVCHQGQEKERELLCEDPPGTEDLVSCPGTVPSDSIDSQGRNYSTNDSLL
# PROTOCOL: Agonist activity at beta2 receptor in guinea pig trachea assessed as slow onset of inhibition of electrically stimulated contraction
MEASURED_PARAMETER: EC50 (nM)

COMPOUND	SYSTEM_NAME	EC50 (nM)
COc1ccc(Nc2ccc(CCNC[C@H](O)c3ccc(O)c(CO)c3)cc2)cc1-c1ccccc1	Beta-2 adrenergic receptor (Cavia porcellus, UniProt Q8K4Z4)	2

[P] CCOc1ccc(Nc2ccc(CCNCC(O)c3ccc(O)c(CO)c3)cc2)cc1 (racemic)
[Q] COc1ccc(Nc2ccc(CCNC[C@H](O)c3ccc(O)c4[nH]c(=O)ccc34)cc2)cc1-c1ccccc1
[R] COc1ccc(Nc2ccc(CCNC[C@H](O)c3ccc(O)c(NC=O)c3)cc2)cc1-c1ccccc1
[S] OCc1cc(C(O)CNCCCCCCOCCCCc2ccccc2)ccc1O (stereo not given) [SALMETEROL]
INPUT: Order the entries by their reported EC50, beginning at the minimum. Response format: the labels, sorted as the prompt asks.
OUTPUT: Q, R, S, P

* * *

# SYSTEM_NAME: Beta-1 adrenergic receptor (Homo sapiens, UniProt P08588)
# Sequence (P08588 whole entry): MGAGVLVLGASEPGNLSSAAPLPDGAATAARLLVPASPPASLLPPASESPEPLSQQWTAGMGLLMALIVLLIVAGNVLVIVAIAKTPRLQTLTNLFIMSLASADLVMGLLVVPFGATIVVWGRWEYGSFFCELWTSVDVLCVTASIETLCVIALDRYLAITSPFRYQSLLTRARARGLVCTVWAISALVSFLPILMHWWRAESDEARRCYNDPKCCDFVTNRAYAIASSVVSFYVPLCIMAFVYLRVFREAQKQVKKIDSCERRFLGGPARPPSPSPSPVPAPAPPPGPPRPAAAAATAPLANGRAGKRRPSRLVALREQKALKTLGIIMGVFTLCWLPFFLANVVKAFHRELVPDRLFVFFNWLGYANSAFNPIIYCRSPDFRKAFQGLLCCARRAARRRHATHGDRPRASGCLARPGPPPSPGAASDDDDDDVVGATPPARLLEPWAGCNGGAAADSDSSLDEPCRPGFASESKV
# PROTOCOL: Agonist activity at human recombinant beta1 receptor assessed as cAMP accumulation by radioimmunoassay and cell based assay
pEC50: −log10 of the molar value.
MEASURED_PARAMETER: pEC50

COc1ccc(Nc2ccc(CCNC[C@H](O)c3ccc(O)c(NC=O)c3)cc2)cc1-c1ccccc1 8.00
COc1ccc(Nc2ccc(CCNC[C@H](O)c3ccc(O)c4[nH]c(=O)ccc34)cc2)cc1-c1ccccc1 8.10
